Biological target: human LPA3 (Homo sapiens, UniProt Q9UBY5)
Construct: The full-length cDNA fragment for human LPA3 was obtained by PCR from the vector; cDNA from the Missouri S&T cDNA Resource Center
Sequence (Q9UBY5 1-353): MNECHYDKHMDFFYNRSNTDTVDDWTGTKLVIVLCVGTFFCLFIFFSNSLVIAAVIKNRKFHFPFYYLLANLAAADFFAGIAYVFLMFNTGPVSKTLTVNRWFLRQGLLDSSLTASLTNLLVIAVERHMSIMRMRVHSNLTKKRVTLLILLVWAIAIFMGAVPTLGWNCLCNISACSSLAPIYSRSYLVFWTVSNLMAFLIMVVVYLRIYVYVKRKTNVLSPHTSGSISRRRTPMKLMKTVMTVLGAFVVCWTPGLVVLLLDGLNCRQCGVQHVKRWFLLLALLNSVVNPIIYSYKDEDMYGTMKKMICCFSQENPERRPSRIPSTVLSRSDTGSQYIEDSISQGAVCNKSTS
Experiment: LPA3 calcium flux assay
Conditions: Human LPA3 expressing CHO cells, stimulated with 10 nM LPA; read-out: HLPA3 Ca Flux IC50
Listed here are compounds together with their documented IC50.

Some compounds with recorded IC50:
Cc1noc(-c2ccc(-c3ccc(Cc4nn[nH]n4)cc3)cc2)c1NC(=O)O[C@H](C)c1ccccc1Cl : 1 to 50 µM
Cc1noc(-c2ccc(-c3ccc(CC(=O)O)cn3)cc2)c1NC(=O)OC(C)c1ccccc1Cl (stereo not shown) : 1 to 50 µM
Cc1noc(-c2ccc(-c3ccc(CC(=O)O)cc3)cc2)c1NC(=O)O[C@H](C)c1cccc(O)c1 : > 50 µM

Could you now consider this next compound?
Output reported IC50 of the compound `Cc1noc(-c2ccc(-c3cccc(CC(=O)O)c3)cc2)c1NC(=O)O[C@H](C)c1ccccc1` on human LPA3 (Homo sapiens, UniProt Q9UBY5).
> 50 µM

----------
Biological target: human LPA3 (Homo sapiens)
Construct: The full-length cDNA fragment for human LPA3 was obtained by PCR from the vector; cDNA from the Missouri S&T cDNA Resource Center
Assay: LPA3 calcium flux assay
Details: Human LPA3 expressing CHO cells, stimulated with 10 nM LPA; read-out: HLPA3 Ca Flux IC50
Listed here are molecules together with their documented IC50.

Some molecules with recorded IC50:
Cc1noc(-c2ccc(-c3ccc(C(=O)O)cc3)cc2)c1NC(=O)O[C@H](C)c1ccccc1Cl : 300 to 1000 nM
Cc1noc(-c2ccc(-c3ccc(CC(=O)O)cc3)cc2)c1NC(=O)OC(C)c1ccccc1F (centres unmarked) : 1000 to 50000 nM
Cc1noc(-c2ccc(-c3ccc(CC(=O)O)cc3)cc2)c1NC(=O)OC(C)c1ccc(F)cc1F (centres unmarked) : 1000 to 50000 nM

Report IC50 for `Cc1noc(-c2ccc(-c3ccc(CC(=O)O)cc3)cc2)c1NC(=O)O[C@H](C)c1ccccc1F`
1000 to 50000 nM

Report IC50 for Cc1noc(-c2ccc(-c3ccc(C(C)C(=O)O)cc3)cc2)c1NC(=O)OC(C)c1ccccc1F (centres unmarked)
1000 to 50000 nM

Report IC50 for Cc1noc(-c2ccc(-c3ccc(C(C)C(=O)O)cc3)cc2)c1NC(=O)O[C@H](C)c1ccccc1Cl (single isomer, unassigned) [Compound 1-128]
1000 to 50000 nM

----------
Listed here are compounds together with their documented IC50.
Target: human LPA1 (Homo sapiens, UniProt Q92633)
Construct: the full-length cDNA for human LPA1 was obtained by PCR of the reverse transcription reaction
Sequence (Q92633 whole entry): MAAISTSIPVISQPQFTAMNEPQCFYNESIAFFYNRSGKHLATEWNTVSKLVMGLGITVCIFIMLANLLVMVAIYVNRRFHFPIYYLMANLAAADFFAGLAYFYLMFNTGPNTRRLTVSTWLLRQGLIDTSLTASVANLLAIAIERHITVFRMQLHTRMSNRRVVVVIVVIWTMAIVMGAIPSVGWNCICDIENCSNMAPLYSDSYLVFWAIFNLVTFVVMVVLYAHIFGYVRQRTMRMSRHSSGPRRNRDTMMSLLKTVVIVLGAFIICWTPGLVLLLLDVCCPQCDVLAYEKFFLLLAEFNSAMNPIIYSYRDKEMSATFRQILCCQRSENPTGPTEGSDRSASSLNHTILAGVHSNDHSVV
Assay: LPA1 calcium flux assay (HLPA1 Ca Flux)
Conditions: Human LPA1 expressing CHO cells, stimulated with 10 nM LPA

Some compounds with recorded IC50:
Cc1noc(-c2cccc(-c3ccc4c(ccn4CC(=O)O)c3)c2)c1NC(=O)OC(C)c1ccccc1Cl (stereo not shown) : > 50000 nM
Cc1noc(-c2cccc(C3=CCC(C(=O)O)CC3)c2)c1NC(=O)OC(C)c1ccccc1Cl (stereo not shown) : < 300 nM
Cc1noc(-c2cccc(-c3ccc(F)c(CC(=O)O)c3)c2)c1NC(=O)OC(C)c1ccccc1Cl (stereo not shown) : 1000 to 50000 nM
Cc1noc(-c2ccc(-c3ccc(CC(=O)O)cc3)cc2)c1NC(=O)OC(C)c1c(Cl)cccc1Cl (stereo not shown) : 1000 to 50000 nM
Cc1noc(-c2ccc(-c3ccc(CC(=O)O)cc3)cc2)c1NC(=O)O[C@H](C)c1cc(Br)cc(Br)c1 : 1000 to 50000 nM

Output reported IC50 of the compound `Cc1noc(-c2ccc(Oc3ccc(CC(=O)O)cc3)cc2)c1NC(=O)O[C@H](C)c1ccccc1Cl` on human LPA1 (Homo sapiens, UniProt Q92633).
< 300 nM

Output reported IC50 of the compound `Cc1noc(-c2ccc(Sc3ccc(CC(=O)O)cn3)cc2)c1NC(=O)O[C@H](C)c1ccccc1F` on human LPA1 (Homo sapiens, UniProt Q92633).
< 300 nM

----------
Listed here are compounds together with their documented IC50.
Molecular target: human LPA1 (Homo sapiens)
Construct: the full-length cDNA for human LPA1 was obtained by PCR of the reverse transcription reaction
Test: LPA1 calcium flux assay (HLPA1 Ca Flux)
Details: Human LPA1 expressing CHO cells, stimulated with 10 nM LPA

CCOC(=O)Cc1ccc(Oc2ccc(-c3onc(C)c3NC(=O)O[C@H](C)c3ccccc3F)cc2)cc1 [Compound 1-83] : 300 to 1000 nM

Output reported IC50 of the compound Cc1cc(-c2onc(C)c2NC(=O)O[C@H](C)c2ccccc2F)ccc1-c1ccc(C(C)C(=O)O)cc1 (stereo partly shown) [Compound 1-110] on human LPA1 (Homo sapiens).
< 300 nM

Output reported IC50 of the compound Cc1noc(-c2ccc(-c3ccc(CC(=O)O)cc3)cc2)c1NC(=O)OC(C)c1ccc(Cl)cc1F (stereo not shown) [Compound 1-77] on human LPA1 (Homo sapiens).
< 300 nM

Output reported IC50 of the compound Cc1noc(-c2ccc(-c3ccc(C(=O)O)cc3)cc2)c1NC(=O)O[C@H](C)c1ccccc1 [Compound 1-122] on human LPA1 (Homo sapiens).
< 300 nM

Output reported IC50 of the compound Cc1noc(-c2ccc(-c3ccc(CC#N)cc3)cc2)c1NC(=O)O[C@H](C)c1ccccc1F [Compound 2-3] on human LPA1 (Homo sapiens).
< 300 nM

Output reported IC50 of the compound Cc1noc(-c2ccc(-c3cccc(C(=O)O)c3)cc2)c1NC(=O)OC(C)c1ccccc1Cl (stereo not shown) [Compound 1-76] on human LPA1 (Homo sapiens).
< 300 nM

Output reported IC50 of the compound Cc1cccc(COC(=O)Nc2c(C)noc2-c2ccc(-c3cccc(C(=O)O)c3)cc2)n1 [Compound 1-13] on human LPA1 (Homo sapiens).
1000 to 50000 nM

----------
Biological target: human LPA1 (Homo sapiens, UniProt Q92633)
Construct: the full-length cDNA for human LPA1 was obtained by PCR of the reverse transcription reaction
Assay: LPA1 calcium flux assay (HLPA1 Ca Flux)
Conditions: Human LPA1 expressing CHO cells, stimulated with 10 nM LPA
Listed here are compounds together with their documented IC50.

Cc1noc(-c2ccc(COc3ccccc3CC(=O)O)cc2)c1NC(=O)OC(C)c1ccccc1Cl (stereo not shown) : < 300 nM
CCOC(=O)Cc1ccc(Sc2ccc(-c3onc(C)c3NC(=O)O[C@H](C)c3ccccc3F)cc2)cc1 : 1000 to 50000 nM
Cc1noc(-c2ccc(-c3nc(C(=O)O)cs3)cc2)c1NC(=O)OC(C)c1ccccc1Cl (stereo not shown) : < 300 nM

Could you now consider this next compound?
Output reported IC50 of the compound `Cc1noc(-c2ccc(-c3ccc(CC(=O)O)cc3)cc2)c1NC(=O)OCc1ccccc1Cl` on human LPA1 (Homo sapiens, UniProt Q92633).
300 to 1000 nM

----------
Listed here are compounds together with their documented IC50.
Biological target: human LPA1 (Homo sapiens)
Construct: the full-length cDNA for human LPA1 was obtained by PCR of the reverse transcription reaction
Test: LPA1 calcium flux assay (HLPA1 Ca Flux)
Details: Human LPA1 expressing CHO cells, stimulated with 10 nM LPA

Some compounds with recorded IC50:
Cc1noc(-c2ccc(-c3ccc(CC(=O)O)cc3)cc2)c1NC(=O)O[C@H](C)c1ccccc1F : < 300 nM
Cc1noc(-c2ccc(-c3cc(C(=O)O)ccn3)cc2)c1NC(=O)OC(C)c1ccccc1Cl (stereo not shown) : < 300 nM
Cc1noc(-c2ccc(-c3cccc(CC(=O)O)c3)cc2)c1NC(=O)OC(C)c1ccccc1Cl (stereo not shown) : < 300 nM

Report IC50 for Cc1noc(-c2ccc(-c3ccc(CC(=O)O)cc3)cc2)c1NC(=O)OC(C)Cc1ccccc1 (stereo not shown)
300 to 1000 nM

----------
Molecular target: human LPA1 (Homo sapiens)
Construct: the full-length cDNA for human LPA1 was obtained by PCR of the reverse transcription reaction
Test: LPA1 calcium flux assay (HLPA1 Ca Flux)
Settings: Human LPA1 expressing CHO cells, stimulated with 10 nM LPA
pIC50: −log10 of the molar value.
metric name: pIC50

Some molecules with recorded pIC50:
Cc1noc(-c2cccc(-c3cccc(C(=O)O)n3)c2)c1NC(=O)OC(C)c1ccccc1Cl (stereo not shown) [Compound 1-36] : 6.00 to 6.52
Cc1noc(-c2ccc(-c3ccc(C(=O)O)cc3)cc2)c1NC(=O)OC(C)c1ccccc1Cl (stereo not shown) [Compound 1-51] : > 6.52
Cc1noc(-c2ccc(CS(=O)(=O)c3cccc(CC(=O)O)c3)cc2)c1NC(=O)OC(C)c1ccccc1Cl (stereo not shown) [Compound 1-98] : > 6.52

Report pIC50 for Cc1noc(-c2ccc(Cc3cc(CC(=O)O)ccc3F)cc2)c1NC(=O)O[C@H](C)c1ccccc1F [Compound 1-82]
6.00 to 6.52
